# EXPERIMENTAL SYSTEM: Gal-1 (Homo sapiens, UniProt P09382)
# Construct: made in house; host or cells: E. coli BL21(DE3)
# Sequence (P09382 whole entry): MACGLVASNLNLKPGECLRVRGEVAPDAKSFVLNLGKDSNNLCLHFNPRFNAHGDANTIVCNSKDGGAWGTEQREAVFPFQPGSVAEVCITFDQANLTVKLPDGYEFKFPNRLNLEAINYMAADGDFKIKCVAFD
# MEASUREMENT NOTES: Competition pull-down with lactose
# Format: binding
# CONDITION INFO: H14 library; lactose 10 mM; read-out: Surface mapping KD (apparent), competition
# Protocol: Interactions between the H14 helical LSMs and the targets were abundant, but safe recognition of the native PPI interfaces on the targets is a criterion of druggability. […] For highlighting the effect of the competitor on the binding fingerprints, KD ratios and the LSM replacement percentages were calculated and are represented as heat maps (see ESI, Fig. S7 ^†). […] To avoid overlooking interesting orthosteric weak binders, direct replacement levels were assessed (see ESI, Fig. S7 ^†). […]
pKd: −log10 of the molar value.
Use 4 as the dividing line for pKd, with the line itself on the YES side and lower values as NO.

Example cases with answers are listed next.
NC(=O)C[C@@H](CC(=O)N[C@H]1CCCC[C@@H]1C(N)=O)NC(=O)[C@H]1CCCC[C@@H]1NC(=O)[C@H]1CCCC[C@@H]1NC(=O)C[C@H](CO)NC(=O)[C@H]1CCCC[C@@H]1N [H14 SN]; NO
NC(=O)[C@H]1CCCC[C@@H]1NC(=O)C[C@H](CO)NC(=O)[C@H]1CCCC[C@@H]1NC(=O)[C@H]1CCCC[C@@H]1NC(=O)C[C@H](CC(=O)O)NC(=O)[C@H]1CCCC[C@@H]1N [H14 DS]; NO
CC[C@H](C)[C@@H](CC(=O)N[C@H]1CCCC[C@@H]1C(N)=O)NC(=O)[C@H]1CCCC[C@@H]1NC(=O)[C@H]1CCCC[C@@H]1NC(=O)C[C@H](CC(C)C)NC(=O)[C@H]1CCCC[C@@H]1N [H14 LI]; YES
N=C(N)NCCC[C@@H](CC(=O)N[C@H]1CCCC[C@@H]1C(N)=O)NC(=O)[C@H]1CCCC[C@@H]1NC(=O)[C@H]1CCCC[C@@H]1NC(=O)C[C@H](Cc1ccc(O)cc1)NC(=O)[C@H]1CCCC[C@@H]1N [H14 YR]; NO
CC(C)[C@@H](CC(=O)N[C@H]1CCCC[C@@H]1C(N)=O)NC(=O)[C@H]1CCCC[C@@H]1NC(=O)[C@H]1CCCC[C@@H]1NC(=O)C[C@H](CCC(=O)O)NC(=O)[C@H]1CCCC[C@@H]1N [H14 EV]; NO
CC(C)[C@@H](CC(=O)N[C@H]1CCCC[C@@H]1C(=O)N[C@H]1CCCC[C@@H]1C(=O)N[C@H](CC(=O)N[C@H]1CCCC[C@@H]1C(N)=O)Cc1c[nH]c2ccccc12)NC(=O)[C@H]1CCCC[C@@H]1N [H14 VW]; NO
NC(=O)[C@H]1CCCC[C@@H]1NC(=O)C[C@H](Cc1ccccc1)NC(=O)[C@H]1CCCC[C@@H]1NC(=O)[C@H]1CCCC[C@@H]1NC(=O)C[C@H](Cc1c[nH]c2ccccc12)NC(=O)[C@H]1CCCC[C@@H]1N [H14 WF]; YES
NC(=O)[C@H]1CCCC[C@@H]1NC(=O)C[C@H](CC(=O)O)NC(=O)[C@H]1CCCC[C@@H]1NC(=O)[C@H]1CCCC[C@@H]1NC(=O)C[C@H](CCC(=O)O)NC(=O)[C@H]1CCCC[C@@H]1N [H14 ED]; NO
CSCC[C@@H](CC(=O)N[C@H]1CCCC[C@@H]1C(=O)N[C@H]1CCCC[C@@H]1C(=O)N[C@H](CC(=O)N[C@H]1CCCC[C@@H]1C(N)=O)Cc1ccc(O)cc1)NC(=O)[C@H]1CCCC[C@@H]1N [H14 MY]; NO
CC(C)[C@@H](CC(=O)N[C@H]1CCCC[C@@H]1C(=O)N[C@H]1CCCC[C@@H]1C(=O)N[C@H](CC(=O)N[C@H]1CCCC[C@@H]1C(N)=O)Cc1ccccc1)NC(=O)[C@H]1CCCC[C@@H]1N [H14 VF]; NO

Req: State whether the measured pKd reaches 4, counting equality as reaching it, for NC(=O)[C@H]1CCCC[C@@H]1NC(=O)C[C@H](Cc1ccc(O)cc1)NC(=O)[C@H]1CCCC[C@@H]1NC(=O)[C@H]1CCCC[C@@H]1NC(=O)C[C@H](Cc1c[nH]c2ccccc12)NC(=O)[C@H]1CCCC[C@@H]1N [H14 WY]
Resp: NO

Req: State whether the measured pKd reaches 4, counting equality as reaching it, for CC[C@H](C)[C@@H](CC(=O)N[C@H]1CCCC[C@@H]1C(N)=O)NC(=O)[C@H]1CCCC[C@@H]1NC(=O)[C@H]1CCCC[C@@H]1NC(=O)C[C@H](CC(=O)O)NC(=O)[C@H]1CCCC[C@@H]1N [H14 DI]
Resp: NO

Req: State whether the measured pKd reaches 4, counting equality as reaching it, for N=C(N)NCCC[C@@H](CC(=O)N[C@H]1CCCC[C@@H]1C(=O)N[C@H]1CCCC[C@@H]1C(=O)N[C@@H](CCCCN)CC(=O)N[C@H]1CCCC[C@@H]1C(N)=O)NC(=O)[C@H]1CCCC[C@@H]1N [H14 RK]
Resp: NO

Req: State whether the measured pKd reaches 4, counting equality as reaching it, for CSCC[C@@H](CC(=O)N[C@H]1CCCC[C@@H]1C(N)=O)NC(=O)[C@H]1CCCC[C@@H]1NC(=O)[C@H]1CCCC[C@@H]1NC(=O)C[C@H](CC(N)=O)NC(=O)[C@H]1CCCC[C@@H]1N [H14 NM]
Resp: NO

Req: State whether the measured pKd reaches 4, counting equality as reaching it, for NC(=O)[C@H]1CCCC[C@@H]1NC(=O)C[C@H](CCC(=O)O)NC(=O)[C@H]1CCCC[C@@H]1NC(=O)[C@H]1CCCC[C@@H]1NC(=O)C[C@H](CCC(=O)O)NC(=O)[C@H]1CCCC[C@@H]1N [H14 EE]
Resp: NO

Req: State whether the measured pKd reaches 4, counting equality as reaching it, for N=C(N)NCCC[C@@H](CC(=O)N[C@H]1CCCC[C@@H]1C(N)=O)NC(=O)[C@H]1CCCC[C@@H]1NC(=O)[C@H]1CCCC[C@@H]1NC(=O)C[C@H](Cc1c[nH]c2ccccc12)NC(=O)[C@H]1CCCC[C@@H]1N [H14 WR]
Resp: NO

Req: State whether the measured pKd reaches 4, counting equality as reaching it, for CC[C@H](C)[C@@H](CC(=O)N[C@H]1CCCC[C@@H]1C(=O)N[C@H]1CCCC[C@@H]1C(=O)N[C@H](CC(=O)N[C@H]1CCCC[C@@H]1C(N)=O)Cc1ccccc1)NC(=O)[C@H]1CCCC[C@@H]1N [H14 IF]
Resp: YES

Req: State whether the measured pKd reaches 4, counting equality as reaching it, for C[C@@H](O)[C@@H](CC(=O)N[C@H]1CCCC[C@@H]1C(=O)N[C@H]1CCCC[C@@H]1C(=O)N[C@H](CC(=O)N[C@H]1CCCC[C@@H]1C(N)=O)Cc1c[nH]c2ccccc12)NC(=O)[C@H]1CCCC[C@@H]1N [H14 TW]
Resp: NO
